Assignment: determine reported Phage binding ELISA signal, Anti-PSMA Fab for the given binders.
- measuredOn: T1, Anti-PSMA Fab
- T1 construct: also called 006 PSMA Fab
- method: clonal phage ELISA on biotinylated PSMA Fab captured on neutravidin plates, anti-M13-HRP detection;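 further: crude clonal phage supernatants added to wells preincubated with PSMA antigen or with blocking buffer only (no wash between), briefly incubated, then washed before detecting bound phage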
Field format: numeric only.

Prompt line: What value of Phage binding ELISA signal, Anti-PSMA Fab has been reported for the following binder? LELACRPMWMCQGF (Clone of the Peptide-180 optimisation library, tested as clonal phage supernatant) [Phage-3799]
Response line: 1.31

Prompt line: What value of Phage binding ELISA signal, Anti-PSMA Fab has been reported for the following binder? TVKQCVPEWMCVML (Clone of the Peptide-180 optimisation library, tested as clonal phage supernatant) [Phage-3794]
Response line: 1.31

Prompt line: What value of Phage binding ELISA signal, Anti-PSMA Fab has been reported for the following binder? EQVLCRPEWMCIGF (Clone of the Peptide-180 optimisation library, tested as clonal phage supernatant) [Phage-3789]
Response line: 1.32

Prompt line: What value of Phage binding ELISA signal, Anti-PSMA Fab has been reported for the following binder? MSMYCVPTWMCNGF (Clone of the Peptide-180 optimisation library, tested as clonal phage supernatant) [Phage-3798]
Response line: 1.31
